Provenance of the data: the supplement of paper PMC9112550

This listing pairs sequences with measured shrunken log2 fold change.
# Test system: Escherichia coli TOP10;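 note: peptides expressed intracellularly from a pBAD plasmid library in pooled LB shake-flask culture, induced with 0.3% L-arabinose, DNA abundance read by NGS, three biological replicates, DESeq2 with apeglm shrinkage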
# PROCEDURE DETAILS: shrunken log2 fold change of peptide-encoding DNA abundance (4.5 h post-induction vs induction); higher = less antimicrobial activity (less host growth inhibition)
# PARTICULARS: time post-induction: 4.5 h; library: site-saturation at positions 5, 18, 19, 20
QUANTITY MEASURED: shrunken log2 fold change

>>> numeric_readout("RRIRDRPPRLPRPRPRPPTNPRP")
0.0808
>>> numeric_readout("RRIRMRPPRLPRPRPRPMSPPRP")
0.00473
>>> numeric_readout("RRIRTRPPRLPRPRPRPHPEPRP")
-0.0834
>>> numeric_readout("RRIRSRPPRLPRPRPRPQRMPRP")
-0.133
>>> numeric_readout("RRIRHRPPRLPRPRPRPSLWPRP")
0.257
>>> numeric_readout("RRIRYRPPRLPRPRPRPGKSPRP")
0.0131
>>> numeric_readout("RRIRNRPPRLPRPRPRPDKIPRP")
0.159
>>> numeric_readout("RRIRARPPRLPRPRPRPLQLPRP")
0.179
>>> numeric_readout("RRIRLRPPRLPRPRPRPRWHPRP")
0.199
>>> numeric_readout("RRIRPRPPRLPRPRPRPWDQPRP")
-0.0786
>>> numeric_readout("RRIRSRPPRLPRPRPRPGNIPRP")
-0.281
>>> numeric_readout("RRIRGRPPRLPRPRPRPIDCPRP")
-0.00142
>>> numeric_readout("RRIRPRPPRLPRPRPRPMDCPRP")
-0.00833
>>> numeric_readout("RRIRWRPPRLPRPRPRPRGCPRP")
0.961
>>> numeric_readout("RRIRERPPRLPRPRPRPWWWPRP")
0.0554
>>> numeric_readout("RRIRGRPPRLPRPRPRPSKRPRP")
0.231
>>> numeric_readout("RRIRNRPPRLPRPRPRPKEGPRP")
-0.0345
>>> numeric_readout("RRIRQRPPRLPRPRPRPALIPRP")
0.144
>>> numeric_readout("RRIRIRPPRLPRPRPRPHNMPRP")
-0.898
>>> numeric_readout("RRIRCRPPRLPRPRPRPCMEPRP")
-0.681
>>> numeric_readout("RRIRARPPRLPRPRPRPAKTPRP")
0.179
>>> numeric_readout("RRIRWRPPRLPRPRPRPPGTPRP")
0.475
>>> numeric_readout("RRIRFRPPRLPRPRPRPTMAPRP")
0.185
>>> numeric_readout("RRIRTRPPRLPRPRPRPMGDPRP")
-0.0264
>>> numeric_readout("RRIRYRPPRLPRPRPRPCIMPRP")
-3.3
>>> numeric_readout("RRIRNRPPRLPRPRPRPLTYPRP")
-0.979
>>> numeric_readout("RRIRHRPPRLPRPRPRPKVMPRP")
0.0163
>>> numeric_readout("RRIRVRPPRLPRPRPRPVGQPRP")
0.0877
>>> numeric_readout("RRIRCRPPRLPRPRPRPFLKPRP")
-0.639
>>> numeric_readout("RRIRTRPPRLPRPRPRPQDEPRP")
-0.152
>>> numeric_readout("RRIRGRPPRLPRPRPRPQMDPRP")
0.291
>>> numeric_readout("RRIRARPPRLPRPRPRPRDIPRP")
0.0507
>>> numeric_readout("RRIRKRPPRLPRPRPRPFHMPRP")
-0.424
>>> numeric_readout("RRIRFRPPRLPRPRPRPEMRPRP")
0.244
>>> numeric_readout("RRIRYRPPRLPRPRPRPNVNPRP")
-1.2
>>> numeric_readout("RRIRDRPPRLPRPRPRPTKNPRP")
0.0799
>>> numeric_readout("RRIRFRPPRLPRPRPRPCRFPRP")
-0.607
>>> numeric_readout("RRIRNRPPRLPRPRPRPKIHPRP")
-0.719
>>> numeric_readout("RRIRSRPPRLPRPRPRPHQSPRP")
-0.198
>>> numeric_readout("RRIRVRPPRLPRPRPRPFQLPRP")
0.142
>>> numeric_readout("RRIRLRPPRLPRPRPRPGWCPRP")
0.191
>>> numeric_readout("RRIRIRPPRLPRPRPRPGTWPRP")
-0.475
>>> numeric_readout("RRIRSRPPRLPRPRPRPSMKPRP")
-0.59
>>> numeric_readout("RRIRPRPPRLPRPRPRPCCNPRP")
-0.301
>>> numeric_readout("RRIRYRPPRLPRPRPRPIMSPRP")
-0.114
